# Tested on: RXF 393 renal
# method.description: NCI-60 one-dose screen, 48 h (100 = growth as untreated, 0 = no growth, -100 = all killed)
# recorded.conditions: 10 µM unless noted
Compounds without any hit were thinned out: in the full panel of roughly 83,000, 20% have a hit.

molecule	target.entity	unit.string	growth
COc1ccc(OC)c(Nc2nnc(-c3ccc(Cl)cc3)o2)c1	RXF 393 renal	%	90.4
COc1ccc(NC(=O)c2sc3nc(C)c(C(O)c4ccccc4)cc3c2N)cc1 (stereo not drawn)	RXF 393 renal	%	-7.22
COc1ccc2nc(Cl)c(/C=C/C(=O)c3ccc(NC(=O)CSc4nnc(-c5ccc(Cl)c(Cl)c5)n4-c4ccccc4)cc3)cc2c1	RXF 393 renal	%	91.8
CC[C@H](CC[C@@H](C)[C@H]1CC[C@H]2[C@@H]3CC[C@@H]4CC(=O)/C(=C\c5ccncc5)C[C@]4(C)[C@H]3CC[C@]12C)C(C)C	RXF 393 renal	%	109
CCN(CC)CCCNCc1cc(-c2ccccc2)nc2cc(Cl)ccc12	RXF 393 renal	%	77.2
C#CC#CC#CC#CC#CC#CC#CC#CC[C@H]1OC[C@H](COC(=O)O[C@@H](C(=O)O[C@H]2C[C@@]3(O)[C@@H](OC(=O)c4ccccc4)[C@@H]4[C@]5(OC(C)=O)CO[C@@H]5C[C@H](O)[C@@]4(C)C(=O)[C@H](OC(C)=O)C(=C2C)C3(C)C)[C@@H](NC(=O)c2ccccc2)c2ccccc2)O1	RXF 393 renal	%	43
COC(=O)Cc1nc(C#N)c(N(C)C)o1	RXF 393 renal	%	106
Cc1ccc2[nH]c(-c3ccc(S(C)(=O)=O)cc3)c(/C=N/N=C(N)N)c2c1	RXF 393 renal	%	66.8

---

# System: NCI-H322M lung
# method.description: NCI-60 one-dose screen, 48 h (100 = growth as untreated, 0 = no growth, -100 = all killed)
# recorded.conditions: 10 µM unless noted
About 83,000 compounds went through this panel and 20% of them were active in at least one assay; those are over-represented in the sample as a whole.
Overview of recorded growth for various compounds

compound	growth (%)
CCCCCCCCNc1cc2c3c(c1)CCCN3CCC2	111
CCN(CCO)CC(C)Nc1ccc([N+](=O)[O-])c2sc3ccccc3c(=O)c12 (stereo not given)	15.6
O=c1oc2c(cnc3ccccc32)cc1-c1cccs1	104
CCOC(=O)c1c(-c2ccccc2)n2c(=O)cc(C)c3c(O)c(O)cc1c32	50.3
NC(=O)OCCn1cc(-c2nc(-c3c[nH]c4ncccc34)cs2)c2ccccc21	65.9
COc1ccc(/C(C)=C(\c2ccc(Cl)cc2)c2ccc(OCCN3CCCC3)cc2)cc1	49.6
COCC[C@H]1CCC/C=C/[C@@H]2C[C@H](O)C[C@H]2[C@H](O)/C=C/C(=O)O1	29.7
Cn1c(O)c(C(/C=C/c2ccccc2)=Nc2ccccc2N)c(=O)n(C)c1=O	105
O=C(N=Nc1c(O)[nH]c2ccccc12)Nc1ccc(Cl)cc1	75.3
Cc1[nH]c(/C=C/C(=O)c2ccc(C(F)(F)F)c(F)c2)c(C)c1C(=O)NCC(C)C	101

---

# Tested on: K-562 leukemia
# method.description: NCI-60 one-dose screen, 48 h (100 = growth as untreated, 0 = no growth, -100 = all killed)
# recorded.conditions: 10 µM unless noted
This is part of a sample that, as a whole, favours compounds with a hit. Of some 83,000 tested, about 20% had one in any assay. Calls of active or inactive are those of the source. Rule for the calls: active = growth percent below 10; inactive = the rest.
Overview of recorded growth for various compounds
assay.endpoint: growth

compound	assay.endpoint	meas.value
COc1ccc2c(O)c(/C=C3\N=Nc4ccccc43)oc2c1C[C@H]1CCNC[C@H]1F	growth	37.4% (inactive)
Cc1ccc(/C=C2\CN(C(=O)C(Cl)Cl)C/C(=C\c3ccc(C)cc3)C2=O)cc1	growth	-0.0477% (active)
CN(C)c1ccc(-c2cc(-c3ccc(Nc4nc(Nc5ccc(Cl)cc5)nc(Nc5ccc(Cl)cc5)n4)cc3)nc(N)c2C#N)cc1	growth	68.4% (inactive)
CCN(C(=O)N1CCN(c2cc3c(cc2F)c(=O)c(C(=O)O)cn3C2CC2)CC1)c1nc(-c2ccc(C)cc2)cs1	growth	16% (inactive)
O=C(/C=C/c1ccc(Br)cc1)c1ccc(-n2cc(CN3CCN(c4cc5c(cc4F)c(=O)c(C(=O)O)cn5C4CC4)CC3)nn2)cc1	growth	51.5% (inactive)
CC1(C)CC[C@]2(C(=O)O)CC[C@]3(C)C(=CC[C@@H]4[C@@]5(C)C[C@@H](Cc6cn([C@@H]7O[C@H](CO)[C@@H](O)[C@H](O)[C@H]7O)nn6)[C@H](O)C(C)(C)[C@@H]5CC[C@]43C)[C@@H]2C1	growth	90% (inactive)
CCNC(=O)Oc1ccc(/C(=C(/C)Cc2ccc(OC)cc2)c2ccc(OCCN3CCCCCC3)cc2)cc1	growth	5.8% (active)
CN1CCN(C(=O)c2cc(-c3ccc4ncnc(N5CCc6cc(F)c(Cl)cc65)c4c3)cnc2N)CC1	growth	11.1% (inactive)
COc1ccc(-c2cc(C(=O)N3N=C(c4ccc(N)cc4)CC3c3ccccc3)c3ccccc3n2)cc1 (centres undefined)	growth	19.8% (inactive)
N#Cc1c(-c2ccccc2)cc(-c2ccccc2)n(CCCC(=O)NO)c1=O	growth	7.36% (active)
O=C1Nc2ccccc2C2c3cccn3-c3ccccc3N12 (centres undefined)	growth	23.9% (inactive)
COc1ccc(-c2nnc(SCC(=O)Nc3ccc(/C(C)=N\O)cc3)n2-c2ccccc2)cc1OC	growth	105% (inactive)
C#CCOc1ccc2ncnc(Nc3cccc(NC(=O)CCl)c3)c2c1	growth	55.2% (inactive)
Nc1c(C(=O)Nc2cccc3ncccc23)sc2nc3c(cc12)C(=O)CCC3	growth	31.1% (inactive)
CCCCN1C(=O)/C(=c2\sc3n(c2=O)NC2C(N=3)N(CC)C(=O)N2CC)c2ccccc21 (centres undefined)	growth	14.6% (inactive)
N#Cc1nc2c(S(=O)(=O)c3ccccc3)c(N)n(Cc3cccnc3)c2nc1C#N	growth	51.6% (inactive)
COc1ccc(/C=C/C(=O)c2ccc(NC(=O)CSc3nnc(-c4cc(-c5ccccc5)nc5ccccc45)n3-c3ccccc3)cc2)cc1	growth	88.8% (inactive)
COc1cc(C2Cc3ncccc3-c3[nH]c(=O)c4cccnc4c32)cc(OC)c1OC (centres undefined)	growth	16.3% (inactive)
O=C1OCC2=C1C(c1cccc(F)c1)c1cc3c(cc1N2CCO)OCO3 (centres undefined)	growth	9.79% (active)
COc1ccc(C2=NN(C(=O)c3cc(OC)c(OC)c(OC)c3)C(c3ccc(N(C)C)cc3)C2)cc1 (centres undefined)	growth	44.2% (inactive)
O=c1[nH]cnc2c1C(c1ccc(Br)cc1)c1sc3c(F)cccc3c1O2 (centres undefined)	growth	94.6% (inactive)
COc1cc(-c2nc3ccc(C)cc3[nH]2)ccc1OCC(=O)N=Nc1c(O)[nH]c2ccc(Cl)cc12	growth	-39.3% (active)
CNCc1cccc2c1OCCOCCN(C)C(=O)CN(C)S(=O)(=O)c1ccc(cc1)-c1cnc(N)c(n1)C(=O)N2	growth	-39.5% (active)
CCc1ccc(CCC(=O)Nc2ncc(Cc3ccc(Cl)cc3)s2)o1	growth	10.9% (inactive)
CC(C)(CO)N(CCO)CCO	growth	101% (inactive)
N=c1sc(Cc2cc(Cl)ccc2Cl)cn1CC(=O)c1ccccc1	growth	17% (inactive)
CC1(C)CC2=C3C=C[C@@H]4[C@@]5(C)CC[C@H](O)C(C)(C)[C@@H]5CC[C@@]4(C)[C@]3(C)CC[C@@]2(C(=O)O)CC1=O	growth	57.5% (inactive)
CCN1CCN(CC(=O)Nc2nc3ccc(NCc4ccc(Br)cc4)cc3s2)CC1	growth	-49.7% (active)
CC(C)CN1CC(C(=O)Nc2ccc3c(c2)-c2ccccc2C3)CC1=O (centres undefined)	growth	64.7% [50 µM] (inactive)
COC(c1ccc2ccccc2c1)C(C)C(F)F (centres undefined)	growth	97.1% (inactive)
Oc1c(Cl)cc(Cl)c2ccc(Cn3cc(-c4cccc(C(F)(F)F)c4)nn3)nc12	growth	5.87% (active)
Cc1cc(N2CCCCC2)nc(N2CCN(CC(=O)Nc3ccc4c(ccn4Cc4ccccc4)c3)CC2)n1	growth	35.4% (inactive)
C#CC#CC#CC#CC#CC#CC#CC#CC[C@H]1OC[C@@H](COC(=O)O[C@@H](C(=O)O[C@H]2C[C@@]3(O)[C@@H](OC(=O)c4ccccc4)[C@@H]4[C@]5(OC(C)=O)CO[C@@H]5C[C@H](O)[C@@]4(C)C(=O)[C@H](OC(C)=O)C(=C2C)C3(C)C)[C@@H](NC(=O)c2ccccc2)c2ccccc2)O1	growth	22.7% (inactive)
O=C(CSc1nc2ccc([N+](=O)[O-])cc2[nH]1)Nc1ccc(Br)cc1	growth	26.9% (inactive)

---

# System: OVCAR-3 ovarian
# method.description: NCI-60 one-dose screen, 48 h (100 = growth as untreated, 0 = no growth, -100 = all killed)
# recorded.conditions: 10 µM unless noted
# Method: Growth inhibition of the OVCAR-3 human tumor cell line is measured as a screen for anti-cancer activity. Cells are grown in 96 well plates and exposed to the test compound for 48 hours. Compounds are tested at a single concentration, which is 10^-5 M for most compounds. The reported endpoint is percent growth (GI% or GIPRCNT), where numbers from 0 - 100% represent growth inhibition, and numbers from -100% - 0 represent cell death. For example, a value of 40 represents 60% growth inhibition. […]
This is part of a sample that, as a whole, favours compounds with a hit. Of some 83,000 tested, about 20% had one in any assay.
true (1) if growth is below 70%. false (0) if not; exact matches included in false (0).

compound	discrete.label
C[C@@H](CO)[C@@H]1CC[C@]2(C(=O)N3CCN(C)CC3)CC[C@]3(C)[C@H](CC[C@@H]4[C@@]5(C)CC[C@H](O)C(C)(C)[C@@H]5CC[C@]43C)[C@@H]12	false (0)
COc1cccc2c(N=NC(=O)c3ccc(S(N)(=O)=O)cc3)c(O)[nH]c12	false (0)
CCCNc1nc2ccccc2c2c(=O)c3cccc(Cl)c3sc12	false (0)
CCOC(=O)c1ccc2c(c1)c1c(C)c3ccncc3c(C)c1n2C	true (1)
O=C(Cn1cc(CN2C(=O)c3ccccc3S2(=O)=O)nn1)Nc1cccc(Cl)c1	false (0)
COc1cc(OC)cc(C2C(C#N)=C(N)Oc3c2ccc2ccc(O)cc32)c1 (configuration not stated)	true (1)
CCCCSCC(=O)c1ccccc1	false (0)
O=C(Nc1nc(C(=O)N2CCN(C(c3ccccc3)c3ccccc3)CC2)cs1)c1ccc(NC2CCCCC2)c([N+](=O)[O-])c1	false (0)
C=C(CO)[C@@H]1CC[C@]2(COC3CCCCO3)CC[C@]3(C)[C@H](CC[C@@H]4[C@@]5(C)C=C(C=O)C(=O)C(C)(C)[C@@H]5CC[C@]43C)[C@@H]12 (some centres not stated)	true (1)
COc1cccc(/C=C/C(=O)c2cc3c(N)c(C(=O)Nc4ccccc4C)sc3nc2C)c1	true (1)
O=C(N=Nc1c(O)[nH]c2ccccc12)Nc1ccc(Cl)cc1	false (0)
CC(C)=CC(=O)N[C@@H]1CC2CCC3C(CC[C@@]4(C)C3CC[C@@H]4C(C)N(C)C)[C@@]2(C)C[C@@H]1O (some centres not stated)	true (1)
COc1ccc2nc(Cl)c(/C=C/C(=O)c3ccc(NC(=O)CSc4nnc(-c5ccc(Cl)c(Cl)c5)n4-c4ccccc4)cc3)cc2c1	false (0)
N=c1sc(Cc2cc(Cl)ccc2Cl)cn1CC(=O)c1ccccc1	true (1)
CN1CCN(Cc2ccc(NC(=O)c3cncc(C#Cc4cnn5ccccc45)c3)cc2C(F)(F)F)CC1	true (1)
CN(CCC#N)c1ccc(/C=C2\NC(=O)NC2=O)cc1	false (0)
COc1cc2c(c(OC)c1OC)C(=O)N[C@@H]1[C@@H](O)[C@@H](O)[C@H](O)C[C@@H]21	false (0)
COc1cc2c(/C=C3\C(=O)Nc4ccccc43)c(C(=O)O)[nH]c2cc1C	false (0)
C=C1C(=O)O[C@H]2[C@H]1CC/C(COC(=O)NCCCCCCCCNC(=O)OC/C1=C/CC[C@@]3(C)O[C@H]3[C@H]3OC(=O)C(=C)[C@@H]3CC1)=C\CC[C@@]1(C)O[C@@H]21	true (1)
O=C(CCCCl)NNc1nccc(Nc2ccc(S(=O)(=O)Nc3ccncc3)cc2)n1	false (0)
COc1ccc(-c2nnc(SCC(=O)Nc3ccc(/C(C)=N\O)cc3)n2-c2ccccc2)cc1OC	false (0)
CN1CCN(Cc2cc(NC(=O)c3cccc(C#Cc4cccc5[nH]nc(N)c45)c3)cc(C(F)(F)F)c2)CC1	true (1)
COc1cc(-c2nc(NC(C)=O)sc2-c2ccnc(NCCNS(=O)(=O)c3ccccc3)n2)ccc1Cl	true (1)
CCN(CCO)CC(C)Nc1ccc([N+](=O)[O-])c2sc3ccccc3c(=O)c12 (configuration not stated)	true (1)
Cc1ccc2nc(Cl)c(Cn3nnnc3SCc3ccccc3)cc2c1	false (0)
C=CC(=O)N1CCN(c2ccc3cccc(NC(=O)c4cnc(C)cn4)c3n2)CC1	true (1)
O=C(O)C1CN(c2cccc(Cl)c2)N(c2cccc(Cl)c2)C1=O (configuration not stated)	false (0)
O=C1Nc2ccccc2C2c3cccn3-c3ccccc3N12 (configuration not stated)	false (0)
CCOC(=O)c1c(-c2ccccc2)n2c(=O)cc(C)c3c(O)c(O)cc1c32	true (1)
COc1cc2oc(-c3cccc(NC(=O)c4ccc5c(c4)OCO5)c3)cc(=O)c2c(OC)c1OC	true (1)
CCCCCCCC/C=C\CCCCCCCCOc1ccccc1CC(=O)NCC[N+]1(C)CCCCC1	true (1)
CC1=CCC[C@@H]2C1(C)CC[C@H](C)[C@@]2(C)CC1=CC(=O)C(SC(C)(C)C)=CC1=O (some centres not stated)	false (0)
COc1ccc(Nc2ncccc2NC(=O)c2cn(Cc3cccc(Oc4ccccc4)c3)nn2)cc1OC	false (0)
Cc1ccc(C(=O)c2ccc(CC(=O)N/N=C/c3ccc(O)cc3O)n2C)cc1	true (1)
O=C1OCC2=C1C(c1cccc(C(F)(F)F)c1)c1cc3c(cc1N2CCO)OCO3 (configuration not stated)	true (1)
CCC(C)Nc1ccc(NC(C)CC)cc1 (configuration not stated)	true (1)
